# testDetails: Solubility study of Form A in de-ionized water and 20 mM phosphate buffer at pH 3.2 (HPLC, XRPD of solids)
# Type: physicochemical
# assaySetup: de-ionized water, water, thermodynamic from solid
endpoint: solubility

Quick note, solubility for `CCS(=O)(=O)c1cccc(-c2cc(C(=O)NC3CCN(C)CC3)c(C)c3[nH]c4ncc(C)cc4c23)c1` landed at < 100 µg/mL

---

# testDetails: Solubility study of Form A in de-ionized water and 20 mM phosphate buffer at pH 3.2 (HPLC, XRPD of solids)
# Assay type: physicochemical
# assaySetup: aqueous buffer, thermodynamic from solid; 20 mM phosphate buffer at pH 3.2
endpoint: solubility

Lab note: `CCS(=O)(=O)c1cccc(-c2cc(C(=O)NC3CCN(C)CC3)c(C)c3[nH]c4ncc(C)cc4c23)c1` gave solubility of < 100 µg/mL
